Origin of measurements: ChEMBL document CHEMBL1131435

# tested-target: Endothelin-1 receptor (Rattus norvegicus)
# method-notes: Ability to inhibit binding of [125I]ET1 to membranes prepared from A10 rat thoracic aorta smooth muscle Endothelin A receptor
# Assay type: tissue-based
property-measured: pKi
API: returns pKi as number; meaning -log10 of concentration in mol/L.

Example results:
# smiles-notation, tested-target, pKi
records = [
    ("Cc1noc(NS(=O)(=O)c2cccc(OCCO)c2-c2ccc(CC(C)C)cc2)c1C", "Endothelin-1 receptor (Rattus norvegicus)", 8.57),
    ("Cc1noc(NS(=O)(=O)c2ccccc2-c2ccc(CC(C)(C)C)cc2)c1C", "Endothelin-1 receptor (Rattus norvegicus)", 6.96),
    ("COc1cc(OC)nc(NS(=O)(=O)c2ccccc2-c2ccc(CC(C)C)cc2)n1", "Endothelin-1 receptor (Rattus norvegicus)", 5.41),
    ("Cc1noc(NS(=O)(=O)c2ccccc2-c2ccc(C(C)C)cc2)c1C", "Endothelin-1 receptor (Rattus norvegicus)", 7.30),
]

Dear colleague, I am looking for the recorded pKi of the following compound: Cc1noc(NS(=O)(=O)c2ccccc2-c2ccc(CCC(C)C)cc2)c1C
7.10

Which pKi is reported for this compound? Cc1ccc(-c2ccccc2S(=O)(=O)Nc2onc(C)c2C)cc1
7.26

Query (compound): Cc1noc(NS(=O)(=O)c2ccccc2-c2ccc(CC(C)C)cc2NC(C)C)c1C ; field requested: pKi
7.47

What does the data say about its pKi? Entry: Cc1noc(NS(=O)(=O)c2ccccc2C(C)C)c1C
6.22

Entry under review: CCOC(=O)c1c(C)noc1NS(=O)(=O)c1ccccc1-c1ccc(CC(C)C)cc1 . Reported pKi?
5.14

* * *

# tested-target: UniProtKB P21451
# Ki per entry

See these solved cases before continuing.
# smiles-notation, Ki
data = [
    ("Cc1noc(NS(=O)(=O)c2ccccc2-c2cccs2)c1C", "> 200 µM"),
    ("Cc1noc(NS(=O)(=O)c2ccccc2-c2ncccn2)c1C", "> 200 µM"),
    ("Cc1noc(NS(=O)(=O)c2ccccc2-c2cccnc2)c1C", "> 200 µM"),
]

GET /values?readout=Ki&item= Cc1noc(NS(=O)(=O)c2ccccc2-c2cc3ccccc3[nH]2)c1C
66 µM

* * *

# tested-target: Endothelin-1 receptor (Rattus norvegicus)
# method-notes: Ability to inhibit Endothelin A receptor induced contractions in rabbit carotid artery rings (ETA) was determined in an in vitro functional assay.
property-measured: pKi
// pKi: -log10(molar conc.)

API: value(readout=pKi, system=Endothelin-1 receptor (Rattus norvegicus)) for record Cc1noc(NS(=O)(=O)c2ccccc2-c2ccccn2)c1C
6.09

Give the reported pKi for Cc1noc(NS(=O)(=O)c2ccccc2-c2ncccn2)c1C (system: Endothelin-1 receptor (Rattus norvegicus)).
5.06

* * *

# tested-target: Endothelin-1 receptor (Rattus norvegicus)
# method-notes: Ability to inhibit binding of [125I]ET1 to membranes prepared from A10 rat thoracic aorta smooth muscle Endothelin A receptor
# Type: tissue-based
pKi: −log10 of the molar value.
Each entry gets No if its pKi stays under 8, and Yes if its pKi is 8 or above.

Answered cases to consult:
# smiles-notation, answer-label
data = [
    ("Cc1noc(NS(=O)(=O)c2ccccc2-c2cccc(N(C)C)c2)c1C", "No"),
    ("Cc1[n-][o+]c(NS(=O)(=O)c2ccccc2[N+](=O)[O-])c1C", "No"),
    ("Cc1noc(NS(=O)(=O)c2ccccc2-c2ccc(SC(C)C)cc2)c1C", "No"),
    ("Cc1noc(NS(=O)(=O)c2ccccc2-c2ccc(CC(C)C)cc2N)c1C", "Yes"),
    ("Cc1noc(NS(=O)(=O)c2ccccc2-c2ccc(N(C)C(C)C)cc2)c1C", "No"),
    ("Cc1noc(NS(=O)(=O)c2cccc(OCC(=O)O)c2-c2ccc(CC(C)C)cc2)c1C", "No"),
]

Please tell me: is the compound CNC(=O)Nc1cc(CC(C)C)ccc1-c1ccccc1S(=O)(=O)Nc1onc(C)c1C at or over 8 in terms of pKi?
No

Does Cc1noc(NS(=O)(=O)c2cccc(O)c2-c2ccc(CC(C)C)cc2)c1C have a reported pKi of at least 8?
Yes

* * *

# tested-target: UniProt P26684
# Sequence (P26684 whole entry): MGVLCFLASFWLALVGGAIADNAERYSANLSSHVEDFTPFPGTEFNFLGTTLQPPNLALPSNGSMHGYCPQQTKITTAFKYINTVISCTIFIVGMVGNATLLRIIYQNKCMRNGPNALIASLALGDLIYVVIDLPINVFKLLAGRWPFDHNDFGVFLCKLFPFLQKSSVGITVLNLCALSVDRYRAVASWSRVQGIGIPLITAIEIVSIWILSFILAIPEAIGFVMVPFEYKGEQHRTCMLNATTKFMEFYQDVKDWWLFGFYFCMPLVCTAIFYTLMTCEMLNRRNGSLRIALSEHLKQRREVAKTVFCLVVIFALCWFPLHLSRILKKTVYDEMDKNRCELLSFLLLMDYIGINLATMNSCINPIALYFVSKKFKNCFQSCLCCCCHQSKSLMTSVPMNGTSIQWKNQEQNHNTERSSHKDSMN
# method-notes: Ability to inhibit binding of [125I]ET1 to membranes prepared from A10 rat thoracic aorta smooth muscle Endothelin A receptor
# Assay type: tissue-based
Parameter: pKi. Scope: all listed entries.
Scale note: pKi = -log10(concentration in M).

Use these answered entries as a reference point.
# molecule, property-measured, observed-measurement
records = [
    ("Cc1noc(NS(=O)(=O)c2ccc(NCC(=O)O)cc2-c2ccc(CC(C)C)cc2)c1C", "pKi", 6.26),
    ("Cc1noc(NS(=O)(=O)c2ccccc2-c2ccc(CC(C)C)cc2CNC=O)c1C", "pKi", 8.70),
    ("Cc1noc(NS(=O)(=O)c2ccccc2-c2ccccc2N)c1C", "pKi", 7.80),
    ("Cc1cnoc1NS(=O)(=O)c1ccccc1-c1ccc(CC(C)C)cc1", "pKi", 6.01),
]

Notebook: pull reported pKi for UniProt P26684, entry Cc1noc(NS(=O)(=O)c2ccccc2-c2ccc(CC(C)C)cc2O)c1C
8.10

Form field: pKi recorded for Cc1noc(NS(=O)(=O)c2ccccc2-c2ccc(S(=O)(=O)C(C)C)cc2)c1C with UniProt P26684 (enter value)
6.96

Please provide the recorded pKi for COc1ccc(-c2ccccc2S(=O)(=O)Nc2onc(C)c2C)cc1 , tested on UniProt P26684.
7.48

Notebook: pull reported pKi for UniProt P26684, entry Cc1noc(NS(=O)(=O)c2ccccc2-c2ccc(S(=O)(=O)N(C)C)cc2)c1C
6.25

Which measured pKi belongs to Cc1noc(NS(=O)(=O)c2ccccc2-c2ccc(CC(C)C)cc2)c1C , tested on UniProt P26684?
7.74

Form entry - test system: UniProt P26684; read-out: pKi; molecule: Cc1noc(NS(=O)(=O)c2ccccc2-c2cccc(CC(C)C)c2)c1C
6.72

Notebook: pull reported pKi for UniProt P26684, entry Cc1noc(NS(=O)(=O)c2ccccc2-c2ccccc2N(C)C)c1C
6.99

Request body: readout pKi, system UniProt P26684, query Cc1noc(NS(=O)(=O)c2ccccc2-c2ccc(CC(C)C)cc2)c1Cc1ccccc1 . Return the value.
5.19

For the record Cc1noc(NS(=O)(=O)c2cc(O)ccc2-c2ccc(CC(C)C)cc2)c1C , what value of pKi is listed for UniProt P26684?
6.30

Missing value: pKi, UniProt P26684, entry Cc1noc(NS(=O)(=O)c2ccccc2C(F)(F)F)c1C . Fill in?
6.15

GET /values?readout=pKi&system=UniProt P26684&item= Cc1noc(NS(=O)(=O)c2ccccc2-c2ccccc2CO)c1C
7.40

* * *

Here, each record is paired with measured pKi data.
# tested-target: Endothelin receptor type B (Rattus norvegicus, UniProt P21451)
# Sequence (P21451 whole entry): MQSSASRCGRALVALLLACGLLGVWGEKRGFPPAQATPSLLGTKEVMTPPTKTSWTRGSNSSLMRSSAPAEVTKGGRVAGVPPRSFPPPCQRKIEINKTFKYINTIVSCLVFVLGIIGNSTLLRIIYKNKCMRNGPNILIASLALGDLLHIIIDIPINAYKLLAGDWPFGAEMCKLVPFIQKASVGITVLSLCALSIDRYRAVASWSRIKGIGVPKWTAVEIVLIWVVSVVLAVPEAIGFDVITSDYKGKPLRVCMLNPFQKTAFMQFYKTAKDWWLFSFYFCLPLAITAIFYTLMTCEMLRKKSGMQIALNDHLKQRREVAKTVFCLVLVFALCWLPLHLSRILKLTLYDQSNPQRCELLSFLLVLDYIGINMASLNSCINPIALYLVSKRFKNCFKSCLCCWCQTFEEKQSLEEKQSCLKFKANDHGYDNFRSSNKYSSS
# method-notes: Ability to inhibit binding of [125I]-ET-1 to membranes prepared from […] rat cerebellum (Endothelin B receptor)
# Format: tissue-based
Quick note: pKi values are minus log10 of concentrations in mol/L.

Check out these entries, answers already filled in.
# smiles-notation, property-measured, observed-measurement
data = [
    ("Cc1noc(NS(=O)(=O)c2cccc(OCC(=O)O)c2-c2ccc(CC(C)C)cc2)c1C", "pKi", 5.40),
    ("CC(C)Cc1ccc(-c2ccccc2S(=O)(=O)Nc2ccc(Cl)nn2)cc1", "pKi", 4.36),
    ("Cc1noc(NS(=O)(=O)c2ccc(NCC(=O)O)cc2-c2ccc(CC(C)C)cc2)c1C", "pKi", 5.72),
]

Form field: reported pKi of Cc1noc(NS(=O)(=O)c2ccccc2-c2ccc(CC(C)C)cc2C(N)=O)c1C
4.92

# lookup: pKi of Cc1noc(NS(=O)(=O)c2ccccc2-c2ccc(N(C)C(C)C)cc2)c1C
4.70

Find the recorded pKi belonging to Cc1noc(NS(=O)(=O)c2ccccc2-c2ccc(C(C)(C)C)cc2)c1C and report it.
4.82

Report pKi for Cc1noc(NS(=O)(=O)c2ccccc2-c2ccc(NC(C)C)cc2)c1C please.
4.77

What value of pKi has been reported for the following molecule? Cc1noc(NS(=O)(=O)c2ccccc2-c2ccc(S(=O)(=O)C(C)C)cc2)c1C
3.77

* * *

# tested-target: Endothelin receptor type B (Rattus norvegicus)
Use Ki to assign classes; range list: low = under 2 µM, intermediate = from 2 µM up to 10 µM, high = 10 µM and over

Illustrative cases are given below, each with its answer.
# smiles-notation, answer-label
data = [
    ("Cc1noc(NS(=O)(=O)c2ccccc2-c2ccccc2N)c1C", "high"),
    ("Cc1noc(NS(=O)(=O)c2cc(OCc3ccccc3)ccc2-c2ccc(CC(C)C)cc2)c1C", "high"),
    ("Cc1noc(NS(=O)(=O)c2ccccc2-c2cccc(CC(C)C)c2)c1C", "intermediate"),
    ("Cc1noc(NS(=O)(=O)c2cc(O)ccc2-c2ccc(CC(C)C)cc2)c1C", "high"),
    ("Cc1noc(NS(=O)(=O)c2ccccc2-c2ccc(CC(C)C)cc2CO)c1C", "low"),
]

Category lookup for the compound Cc1noc(NS(=O)(=O)c2ccccc2-c2ccc(OCC(C)C)cc2)c1C
intermediate

Please indicate the class for Cc1noc(NS(=O)(=O)c2ccccc2-c2cccc(N(C)C)c2)c1C based on its Ki.
high

Which class holds Cc1cnoc1NS(=O)(=O)c1ccccc1-c1ccc(CC(C)C)cc1 ?
high

Assign a bin to Cc1noc(NS(=O)(=O)c2ccccc2-c2cccc(N)c2)c1C
high

Which category fits this record: Cc1noc(NS(=O)(=O)c2ccccc2-c2ccc(CC(C)C)cc2CN)c1C
intermediate

Lab log: Cc1noc(NS(=O)(=O)c2ccccc2-c2ccc(CC(C)C)cc2N)c1C — assign Ki category
low

Class? Entry: CCCNc1cc(CC(C)C)ccc1-c1ccccc1S(=O)(=O)Nc1onc(C)c1C
intermediate
